Sourced from ChEMBL document CHEMBL5543075

target: Glutamate NMDA receptor; GRIN1/GRIN2B (Homo sapiens, UniProt Q05586+Q13224); assay: Inhibition of recombinant human GluN1/GluN2B receptor expressed in HEK293 cells assessed as reduction in glutamate induced current at 1 uM at -60 mV holding potential by electrophysiology assay relative to control; type: cell-based
Listed here are molecules together with their documented inhibition.

See these solved cases before continuing.
>  <MOLECULAR STRING>
Cc1cccc(Oc2ccc3nc4c(c(N)c3c2)CCCC4)c1

>  <ASSAY SYSTEM>
Glutamate NMDA receptor; GRIN1/GRIN2B (Homo sapiens, UniProt Q05586+Q13224)

>  <REPORTED ENDPOINT>
inhibition

>  <VAL>
21.2%

$$$$
>  <MOLECULAR STRING>
COc1ccccc1Oc1ccc2nc3c(c(N)c2c1)CCCC3.Cl

>  <ASSAY SYSTEM>
Glutamate NMDA receptor; GRIN1/GRIN2B (Homo sapiens, UniProt Q05586+Q13224)

>  <REPORTED ENDPOINT>
inhibition

>  <VAL>
25.7%

$$$$
>  <MOLECULAR STRING>
Cc1cccc(Oc2ccc3nc4c(c(N)c3c2)CCCCC4)c1

>  <ASSAY SYSTEM>
Glutamate NMDA receptor; GRIN1/GRIN2B (Homo sapiens, UniProt Q05586+Q13224)

>  <REPORTED ENDPOINT>
inhibition

>  <VAL>
14.8%

$$$$

Q) GET /values?readout=inhibition&item= `Nc1c2c(nc3ccc(Oc4ccc(Cl)cc4)cc13)CCC2`
A) 8.7%

Q) GET /values?readout=inhibition&item= `Cc1ccc(Oc2ccc3nc4c(c(N)c3c2)CCC4)cc1`
A) 18.7%

Q) GET /values?readout=inhibition&item= `Cc1ccccc1Oc1ccc2nc3c(c(N)c2c1)CCCC3`
A) 19.3%

Q) GET /values?readout=inhibition&item= `Cc1cc(C)cc(Oc2ccc3nc4c(c(N)c3c2)CCCCC4)c1`
A) 7.8%

Q) GET /values?readout=inhibition&item= `Nc1c2c(nc3ccc(Oc4ccccc4)cc13)CCCC2`
A) 33.1%

###

molecular target: Glutamate NMDA receptor; GRIN1/GRIN2B (Homo sapiens, UniProt Q05586+Q13224); test: Inhibition of recombinant wild type human GluN1/GluN2B receptor expressed in HEK293 cells assessed as reduction in glutamate induced current at -40 mV holding potential by electrophysiology assay; format: cell-based
REPORTED ENDPOINT: pIC50
// field semantics: pIC50 = negative decimal log of concentration (mol/L)

Q) GET /values?readout=pIC50&item= `COc1ccccc1Oc1ccc2nc3c(c(N)c2c1)CCCC3.Cl`
A) 5.17

###

Listed here are compounds together with their documented log10(IC50 at 24 h).
test: Cytotoxicity against CHO-K1 cells incubated for 24 hrs by MTT assay; format: toxicity, cell-based, Cricetulus griseus; settings: Chinese hamster
Hi team, quick reminder: these entries are log10 of IC50 at 24 h (µM).

See these solved cases before continuing.
>  <MOLECULAR STRING>
Nc1c2c(nc3ccc(Oc4ccc(Cl)cc4)cc13)CCCC2

>  <log10(IC50 at 24 h)>
1.08

$$$$
>  <MOLECULAR STRING>
Nc1c2c(nc3ccc(Oc4ccccc4)cc13)CCCC2

>  <log10(IC50 at 24 h)>
1.49

$$$$
>  <MOLECULAR STRING>
COc1ccc(Oc2ccc3nc4c(c(N)c3c2)CCC4)cc1

>  <log10(IC50 at 24 h)>
1.91

$$$$
>  <MOLECULAR STRING>
Cc1ccc(Oc2ccc3nc4c(c(N)c3c2)CCCCC4)cc1

>  <log10(IC50 at 24 h)>
2.15

$$$$

Q) GET /values?readout=log10(IC50 at 24 h)&item= `Cc1cc(C)cc(Oc2ccc3nc4c(c(N)c3c2)CCCC4)c1`
A) 1.11

Q) GET /values?readout=log10(IC50 at 24 h)&item= `CC(C)(C)c1ccc(Oc2ccc3nc4c(c(N)c3c2)CCCC4)cc1`
A) 0.71

Q) GET /values?readout=log10(IC50 at 24 h)&item= `Cc1ccc(Oc2ccc3nc4c(c(N)c3c2)CCCC4)cc1`
A) 1.30

Q) GET /values?readout=log10(IC50 at 24 h)&item= `Cc1cccc(Oc2ccc3nc4c(c(N)c3c2)CCCC4)c1`
A) 1.30

Q) GET /values?readout=log10(IC50 at 24 h)&item= `COc1ccc(Oc2ccc3nc4c(c(N)c3c2)CCCC4)cc1`
A) 1.41

Q) GET /values?readout=log10(IC50 at 24 h)&item= `COc1ccc(Oc2ccc3nc4c(c(N)c3c2)CCCCC4)cc1`
A) 1.45

Q) GET /values?readout=log10(IC50 at 24 h)&item= `COc1ccccc1Oc1ccc2nc3c(c(N)c2c1)CCCCC3`
A) 1.87

Q) GET /values?readout=log10(IC50 at 24 h)&item= `COc1ccccc1Oc1ccc2nc3c(c(N)c2c1)CCC3.Cl`
A) 1.83

Q) GET /values?readout=log10(IC50 at 24 h)&item= `Cc1ccccc1Oc1ccc2nc3c(c(N)c2c1)CCCC3`
A) 1.40

Q) GET /values?readout=log10(IC50 at 24 h)&item= `Nc1c2c(nc3ccc(Oc4ccc(Cl)cc4)cc13)CCCCC2`
A) 1.95

Q) GET /values?readout=log10(IC50 at 24 h)&item= `COc1cccc(Oc2ccc3nc4c(c(N)c3c2)CCCCC4)c1`
A) 1.32

Q) GET /values?readout=log10(IC50 at 24 h)&item= `Cc1ccc(Oc2ccc3nc4c(c(N)c3c2)CCC4)cc1`
A) 1.88

Q) GET /values?readout=log10(IC50 at 24 h)&item= `Nc1c2c(nc3ccc(Oc4ccccc4)cc13)CCCCC2`
A) 1.58

Q) GET /values?readout=log10(IC50 at 24 h)&item= `CC(C)(C)c1ccc(Oc2ccc3nc4c(c(N)c3c2)CCC4)cc1`
A) 1.04

Q) GET /values?readout=log10(IC50 at 24 h)&item= `Cc1cccc(Oc2ccc3nc4c(c(N)c3c2)CCC4)c1`
A) 1.53

Q) GET /values?readout=log10(IC50 at 24 h)&item= `Cc1cc(C)cc(Oc2ccc3nc4c(c(N)c3c2)CCCCC4)c1`
A) 1.48

Q) GET /values?readout=log10(IC50 at 24 h)&item= `Cc1ccccc1Oc1ccc2nc3c(c(N)c2c1)CCCCC3`
A) 1.41

Q) GET /values?readout=log10(IC50 at 24 h)&item= `CC(C)(C)c1ccc(Oc2ccc3nc4c(c(N)c3c2)CCCCC4)cc1`
A) 0.95

Q) GET /values?readout=log10(IC50 at 24 h)&item= `COc1cccc(Oc2ccc3nc4c(c(N)c3c2)CCC4)c1`
A) 1.93

Q) GET /values?readout=log10(IC50 at 24 h)&item= `Cc1cccc(Oc2ccc3nc4c(c(N)c3c2)CCCCC4)c1`
A) 1.11

Q) GET /values?readout=log10(IC50 at 24 h)&item= `CC(=O)c1ccc(Oc2ccc3nc4c(c(N)c3c2)CCC4)cc1`
A) 1.84

Q) GET /values?readout=log10(IC50 at 24 h)&item= `COc1ccccc1Oc1ccc2nc3c(c(N)c2c1)CCCC3.Cl`
A) 1.63

Q) GET /values?readout=log10(IC50 at 24 h)&item= `Nc1c2c(nc3ccc(Oc4ccc(Cl)cc4)cc13)CCC2`
A) 1.45

Q) GET /values?readout=log10(IC50 at 24 h)&item= `Cc1ccccc1Oc1ccc2nc3c(c(N)c2c1)CCC3.Cl`
A) 1.89

Q) GET /values?readout=log10(IC50 at 24 h)&item= `Nc1c2c(nc3ccc(Oc4ccccc4)cc13)CCC2`
A) 1.74

Q) GET /values?readout=log10(IC50 at 24 h)&item= `Cc1cc(C)cc(Oc2ccc3nc4c(c(N)c3c2)CCC4)c1`
A) 1.59

Q) GET /values?readout=log10(IC50 at 24 h)&item= `COc1cccc(Oc2ccc3nc4c(c(N)c3c2)CCCC4)c1`
A) 1.43
